Sourced from PubChem BioAssay AID493248

Overview of recorded activity change, negative = inhibition for various molecules
# assayed target: FAD-linked sulfhydryl oxidase ALR (Homo sapiens) (UniProt P55789)
# Sequence (P55789 whole entry, looked up): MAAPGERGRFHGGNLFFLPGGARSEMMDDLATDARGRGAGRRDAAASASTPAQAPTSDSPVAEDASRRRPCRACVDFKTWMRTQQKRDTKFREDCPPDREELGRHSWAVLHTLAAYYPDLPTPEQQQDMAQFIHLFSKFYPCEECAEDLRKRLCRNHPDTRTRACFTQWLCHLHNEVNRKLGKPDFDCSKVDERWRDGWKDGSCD
# test method notes: inhibitors of human ALR sulfhydryl oxidase, dose response, biochemical, H2O2 detection, luminescence, cherry-pick (AID 493248)
# assay conditions: purified ALR, DTT oxidation, H2O2 HRP-luminol luminescence; at 10 µM (top of the series)
Hit rate of the full screen: of about 2,300 compounds, about 1,400 (61%) were called active. Not shown: some 7% with an inconclusive outcome. So high a share suggests a set chosen from earlier hits. Not all results are given here. Results with a measured potency or affinity are listed apart.
property: activity change, negative = inhibition (%)

molecule=O=C1c2ccccc2CSc2c(O)cccc21 measurement=-28.4
molecule=Cc1nc2cc(N)ccc2n1-c1ccccc1 measurement=367
molecule=O=[N+]([O-])c1cccc(N/N=C/c2cccc(O)c2O)c1 measurement=-6.94
molecule=Cc1ccc2cc3cc(C(=O)NCCCN4CCCC4=O)oc3nc2c1 measurement=-55.2
molecule="Cc1cccc(C2CN(C)CCc3c2cc(O)c(O)c3Cl)c1 (configuration not stated)" measurement=-100
molecule=C(=C\c1nc2ccccc2[nH]1)/c1ccccc1 measurement=-1.44
molecule=CN(C)/N=C/c1ccc(OC(=O)c2cccc([N+](=O)[O-])c2)cc1 measurement=-3.63
molecule=O=C(CNc1ccccc1)N/N=C/c1c[nH]c2ccccc12 measurement=-29.1
molecule=COc1ccc(N=C(N(C)C)P(=O)(N(C)C)N(C)C)cc1 measurement=-0.552
molecule=O=C(CN1C(=O)S/C(=C\C=C\c2ccccc2)C1=O)Nc1ccccc1C(=O)O measurement=-58
molecule="C=CCN1CCc2cc(O)c(O)cc2C(c2ccccc2)C1 (configuration not stated)" measurement=-91.4
molecule=CC(C)NC(=O)c1ccc(CSCc2ccccc2Cl)o1 measurement=-4.45

----------
# assayed target: FAD-linked sulfhydryl oxidase ALR (Homo sapiens) (UniProt P55789)
# test method notes: inhibitors of human ALR sulfhydryl oxidase, dose response, biochemical, H2O2 detection, luminescence, cherry-pick (AID 493248)
# assay conditions: purified ALR, DTT oxidation, H2O2 HRP-luminol luminescence; at 10 µM (top of the series)
Hit rate of the full screen: of about 2,300 compounds, about 1,400 (61%) were called active. Roughly 7% stayed inconclusive and do not appear here. So high a share suggests a set chosen from earlier hits. Only a sample is shown. Measured potencies and affinities stand elsewhere.
# Lookup of reported activity change, negative = inhibition keyed by entry
property: activity change, negative = inhibition

compound="O=C(c1cccc(Cl)c1)C1CCCN(Cc2ccc(N3CCNC3=O)cc2)C1 (stereo unspecified)" property="activity change, negative = inhibition" measurement=-1.51%
compound=COc1cc(/C=N/O)cc(Br)c1OC property="activity change, negative = inhibition" measurement=21.8%
compound="Cc1nn(C(C)C(=O)N/N=C/c2ccc(N(C)C)cc2)c(C)c1[N+](=O)[O-] (stereo unspecified)" property="activity change, negative = inhibition" measurement=-45.7%
compound=CCc1ccc(CCC(=O)Nc2ccc(Cl)cc2)o1 property="activity change, negative = inhibition" measurement=-22.5%
compound=CC(/C=N/n1c(-c2ccc(C)cc2)n[nH]c1=S)=C\c1ccco1 property="activity change, negative = inhibition" measurement=-40.8%
compound=COc1ccc2c(c1)N(C)/C(=C/c1cccc[n+]1C)S2 property="activity change, negative = inhibition" measurement=-53.1%
compound=Cc1cccc(/C=N/Nc2nncc3ccccc23)c1 property="activity change, negative = inhibition" measurement=-4.32%
compound=COc1cccc(/C=N/NC(=O)CNC(=O)c2ccncc2)c1O property="activity change, negative = inhibition" measurement=-31.5%
compound=CCC(=O)Nc1ccc(C(=O)NCCCn2ccnc2)cc1 property="activity change, negative = inhibition" measurement=87.5%
compound=Cc1ccc[n+](-c2nc([O-])sc2/C=N/Nc2ccc([N+](=O)[O-])cc2)c1 property="activity change, negative = inhibition" measurement=-43.9%
compound=COc1cc(C(=O)O)c2c(c1C)OC(=O)c1c(C)cc(O)c(C=O)c1O2 property="activity change, negative = inhibition" measurement=-39.1%
compound=Cc1noc(C)c1S(=O)(=O)N(CC(=O)NCc1ccc2c(c1)OCO2)c1ccc(C(C)C)cc1 property="activity change, negative = inhibition" measurement=1.03%
compound=Cc1cc(/C=C2\C(=N)N3N=CSC3=NC2=O)c(C)n1Cc1ccccc1 property="activity change, negative = inhibition" measurement=-36.4%
compound=Nc1ccc2nc(-c3cccs3)[nH]c2c1 property="activity change, negative = inhibition" measurement=-80%
compound=Cc1nc([N+](=O)[O-])c(Br)n1CC(=O)c1ccc(Cl)cc1 property="activity change, negative = inhibition" measurement=-18.7%
compound=Cc1n[nH]c(=S)n1/N=C/c1ccccc1 property="activity change, negative = inhibition" measurement=-93.3%
compound=O=C(CN1C(=O)S/C(=C\C=C\c2ccccc2)C1=O)Nc1ccc(C(=O)O)cc1 property="activity change, negative = inhibition" measurement=-22.9%
compound=Cc1ccc([N+](=O)[O-])cc1S(=O)(=O)Nc1ccc(O)c(Sc2ncn[nH]2)c1 property="activity change, negative = inhibition" measurement=-101%
compound="O=C(NCc1ccc2c(c1)OCO2)C1CC(=O)N(c2ccc(O)cc2)C1 (stereo unspecified)" property="activity change, negative = inhibition" measurement=-108%
compound=Cc1ccc(-c2nc3cc(N)ccc3o2)c(C)c1 property="activity change, negative = inhibition" measurement=19.5%
compound=CC(=O)Nc1cccc(N=NN2CCCCC2)c1 property="activity change, negative = inhibition" measurement=26.8%

----------
# assayed target: FAD-linked sulfhydryl oxidase ALR (Homo sapiens)
# test method notes: inhibitors of human ALR sulfhydryl oxidase, dose response, biochemical, H2O2 detection, luminescence, cherry-pick (AID 493248)
# assay conditions: purified ALR, DTT oxidation, H2O2 HRP-luminol luminescence; at 10 µM (top of the series)
The campaign covered roughly 2,300 compounds. About 1,400 (61%) were called active. Roughly 7% stayed inconclusive and do not appear here. The set was probably picked from earlier hits. The list is a sample of the results. Measured potencies and affinities stand elsewhere.
property: activity change, negative = inhibition (%)

compound=CN(C)c1cccc2c(/C=N/O)ccc(N(C)C)c12 assayed_target="FAD-linked sulfhydryl oxidase ALR (Homo sapiens)" measurement=3.9
compound=Cc1cccn2cc(CNc3ccccc3)nc12 assayed_target="FAD-linked sulfhydryl oxidase ALR (Homo sapiens)" measurement=-7.4
compound=CN(Cc1nc2ccccc2n1C)c1ccccc1 assayed_target="FAD-linked sulfhydryl oxidase ALR (Homo sapiens)" measurement=-32.4
compound=CC1=Nc2cccc3cccc(c23)N1C assayed_target="FAD-linked sulfhydryl oxidase ALR (Homo sapiens)" measurement=-10.4
compound=Cc1ccc(N2CC(=O)N(NC(=O)CN3CCN(c4ccccc4)CC3)CC2=O)cc1 assayed_target="FAD-linked sulfhydryl oxidase ALR (Homo sapiens)" measurement=-47.4
compound="CN(C)c1ccc(NC(=O)CC2NCCNC2=O)cc1 (stereo not given)" assayed_target="FAD-linked sulfhydryl oxidase ALR (Homo sapiens)" measurement=-99.5
compound=COc1nc(-c2ccccc2Cl)ccc1C#N assayed_target="FAD-linked sulfhydryl oxidase ALR (Homo sapiens)" measurement=-32.6
compound=N#C/C(N=Nc1ccccc1O)=N\Nc1ccccc1O assayed_target="FAD-linked sulfhydryl oxidase ALR (Homo sapiens)" measurement=22.3
compound=Cc1cccc(NC(=O)C2CCN(S(=O)(=O)c3cccc4cccnc34)CC2)c1 assayed_target="FAD-linked sulfhydryl oxidase ALR (Homo sapiens)" measurement=-19.2
compound=CN(C)c1ccc(/C=N/NC(=O)c2sccc2-n2cccc2)cc1 assayed_target="FAD-linked sulfhydryl oxidase ALR (Homo sapiens)" measurement=-99
compound="COc1ccc(C(=O)N/N=C/C2CC=CCC2)cc1OC (stereo not given)" assayed_target="FAD-linked sulfhydryl oxidase ALR (Homo sapiens)" measurement=-39.6
compound=CCc1c(C(=O)NCc2cnn(C)c2)csc1C assayed_target="FAD-linked sulfhydryl oxidase ALR (Homo sapiens)" measurement=-7.16
compound=COc1ccc(NC(=O)Nc2ccc3nccnc3c2)cc1 assayed_target="FAD-linked sulfhydryl oxidase ALR (Homo sapiens)" measurement=105
compound="CC(C)(C)NC(=O)C(Cc1ccccc1)NS(=O)(=O)c1ccc2c(c1)CCC(=O)N2 (stereo not given)" assayed_target="FAD-linked sulfhydryl oxidase ALR (Homo sapiens)" measurement=-98.2
compound="COc1ccc(NC(=O)CC2Nc3cccc4cccc(c34)NC2=O)cc1 (stereo not given)" assayed_target="FAD-linked sulfhydryl oxidase ALR (Homo sapiens)" measurement=-74.6
compound=O=C(O)CCn1c2c(c3ccccc31)CCCC2 assayed_target="FAD-linked sulfhydryl oxidase ALR (Homo sapiens)" measurement=5.37
compound=O=C(Cc1cccs1)N/N=C\c1ccc(O)cc1 assayed_target="FAD-linked sulfhydryl oxidase ALR (Homo sapiens)" measurement=-96.8
compound=Cc1ccc(N2CCN(C(=O)N3CCCC3)CC2)cc1C assayed_target="FAD-linked sulfhydryl oxidase ALR (Homo sapiens)" measurement=-10.1
compound=CC(C)(C)Nc1c(-c2cccs2)nc2ccccn12 assayed_target="FAD-linked sulfhydryl oxidase ALR (Homo sapiens)" measurement=-39.4
compound=Cc1cc(C(=O)Nc2sc3c(c2C#N)CCCC3)no1 assayed_target="FAD-linked sulfhydryl oxidase ALR (Homo sapiens)" measurement=-53.9
compound=CCN(Cc1nc2ccccc2n1C)c1ccccc1 assayed_target="FAD-linked sulfhydryl oxidase ALR (Homo sapiens)" measurement=-11.5
compound=CCn1c(-c2ccc(N)cc2)nc2ccccc21 assayed_target="FAD-linked sulfhydryl oxidase ALR (Homo sapiens)" measurement=-17.3
compound=O=[N+]([O-])c1cc2c(cc1/C=N/n1c(-c3ccccc3)n[nH]c1=S)OCO2 assayed_target="FAD-linked sulfhydryl oxidase ALR (Homo sapiens)" measurement=-34.5
compound=Cc1cc(-c2n[nH]c(=S)o2)c(C)n1-c1ccccc1 assayed_target="FAD-linked sulfhydryl oxidase ALR (Homo sapiens)" measurement=19.3
compound=O=C(C[n+]1ccccc1)N/N=C/c1ccc(O)cc1 assayed_target="FAD-linked sulfhydryl oxidase ALR (Homo sapiens)" measurement=-108
